Test system: Mycobacterium tuberculosis
Experiment: Cornell M. t heat shock assay; also: in the data most compounds retested in dose-response had high values
Format: functional, organism-based
Parameters: dose or concentration left out as unconfirmed
In all, about 69,000 compounds went through this assay and about 950 (1.4%) showed an effect of 50% or more. Only a selection was taken, and strong results are over-represented in it overall.
Measured quantity: Percent Effect
Field: value (include unit after the number)

Compound | Percent Effect
CC1c2ncc(CNC(=O)C3CC3)n2CCN1CC1CCC1.O=C(O)C(F)(F)F (stereo unspecified) | -0.1216%
O=C(c1ccc2[nH]ccc2c1)N1CCn2cnc(COCC3CC3)c2C1 | 54.29%
Cl.Cl.NCC1[C@H]2CN(Cc3ccccc3F)C[C@@H]12 (stereo partly specified) | -12.63%
Cc1ccc(CN2CCC3(CC2)CCN(C(=O)c2cccnc2)C3)o1.O=C(O)C(F)(F)F | 41.04%
Cc1cc(C(=O)NCC2OCCc3cn(CC4CC4)nc32)c(C)[nH]1 (stereo unspecified) | 105.1%
O=c1cc(CN2CC[C@H]3CC[C@@H](C2)N3)c2cccc3c2n1CCC3 | -15.55%
CCOC(=O)CSc1nnc([C@@H](N)C(C)CC)o1.Cl (stereo partly specified) | -17.57%
COCCn1cc2c(n1)C(CNC(=O)c1cc(C)[nH]c1C)OCC2 (stereo unspecified) | 38.13%
O=C(c1ccoc1)N1CCn2cnc(COCC3CC3)c2C1 | 1.475%
Cc1cccc(C(=O)N2CCn3cnc(COCC4CC4)c3C2)c1 | 29.98%

Consider now this further compound.
# get_value(readout='Percent Effect', item= `CC(=O)N1CCC12CCN(Cc1ccco1)CC2.O=C(O)C(F)(F)F` )
-13.47%
